# reported half-life; entries follow
experiment: Pharmacokinetics of AT and NT in healthy volunteers after a single dose of 25 mg amitriptyline; assay type: in vivo, human; settings: human, plasma, po, 25 mg, healthy volunteers, single oral 25 mg AT; CYP2C19 activity score 3 (n = 1); mean
MEASURED_PROPERTY: half-life (h)

1) CNCCC=C1c2ccccc2CCc2ccccc21 [Nortriptyline, nortriptyline] | 145
2) CN(C)CCC=C1c2ccccc2CCc2ccccc21 [Amitriptyline, amitriptyline] | 28.3

* * *

assay: Pharmacokinetics of AT and NT in healthy volunteers after a single dose of 25 mg amitriptyline; format: in vivo, human; conditions: both sexes, human, plasma, po, 25 mg, healthy volunteers, single oral 25 mg AT, plasma; CYP2D6 activity 2 (n = 11); mean; read-out: AUC48h
# reported AUC(0-t); entries follow
MEASURED_PROPERTY: AUC(0-t) (ng·h/mL)

1. CNCCC=C1c2ccccc2CCc2ccccc21 | 81.8
2. CN(C)CCC=C1c2ccccc2CCc2ccccc21 | 162
